This section presents pIC50 values reported for Tyrosine-protein kinase JAK2 (Homo sapiens, UniProt O60674) in the literature.
pIC50: −log10 of the molar value.
endpoint: pIC50

Examples from the recorded data:
[
  {
    "molecule": "CN(c1ncnc2[nH]ccc12)[C@@H]1CCN(S(=O)(=O)N2CCOCC2)C1",
    "study-system": "Tyrosine-protein kinase JAK2 (Homo sapiens, UniProt O60674)",
    "pIC50": 5.36
  },
  {
    "molecule": "C=CC(=O)N1CCC(N2NC(c3cc(C(C)(C)O)n(C)n3)c3c(N)ncnc32)C1 (stereo not given)",
    "study-system": "Tyrosine-protein kinase JAK2 (Homo sapiens, UniProt O60674)",
    "pIC50": 8.14
  },
  {
    "molecule": "Cc1cnc(Nc2cc(F)c(N3CCOCC3)c(F)c2)nc1-c1cc2c(o1)CCN(S(C)(=O)=O)C2",
    "study-system": "Tyrosine-protein kinase JAK2 (Homo sapiens, UniProt O60674)",
    "pIC50": 8.43
  }
]

[P] Cc1ccncc1-c1cc2c(N[C@@H]3CC[C@](C)(N)C3(C)C)c(C(N)=O)cnn2c1
[Q] Cc1cccc(Nc2nc(Nc3ccc(NC(=O)CCCCCCC(=O)NO)cc3)ncc2C)c1
Hi there, can you help? I need to know whether P or Q has lower measured pIC50. Provide the label of your selected option as the answer.
P
